Tested system: Thyrotropin-releasing hormone receptor (Homo sapiens)
Experimental details: qHTS for Small Molecule Agonists and Allosteric Enhancers of Human TRH Receptor: Validation Screen for Agonists (AID 493127);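 further: intracellular calcium rise by fluo-8 fluorescence before TRH EC20 addition; 0% is about no effect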
Measurement setup: TRH receptor agonist cell assay; at 2 µM; hits give high values
Some molecules, each annotated with its measured activation.
All answers are understood in %, so give the number only.

{"columns": ["Molecule", "Tested system", "Obs value"],
 "data": [
  ["COc1ccc2c(c1)c(CC(=O)O)c(C)n2Cc1ccc(Cl)cc1", "Thyrotropin-releasing hormone receptor (Homo sapiens)", -0.188]
]}

Supply activation value. Item: C=C(C)C1CC=C(C(=O)O)CC1 (stereo not given)
1.12

Supply activation value. Item: `O=c1[nH]ccc2c(O)cccc12`
1.12

Supply activation value. Item: CCC1(O)CC2CN(CCc3c([nH]c4ccccc34)[C@@](C(=O)OC)(c3cc4c(cc3OC)N(C=O)C3[C@]45CCN4CC=C[C@@](CC)([C@@H](OC(C)=O)[C@]3(O)C(=O)OC)[C@H]45)C2)C1 (stereo not given in full)
0.188

Supply activation value. Item: `Nc1ccc(-c2nc3ccc(-c4nc5ccc(N)cc5[nH]4)cc3[nH]2)cc1`
1

Supply activation value. Item: `CC[N+](CC)(CC)CC(=O)Nc1c(C)cccc1C`
0.625

Supply activation value. Item: `COc1ccc(C(=O)NCc2cccnc2)cc1C(=O)NCc1cccnc1`
0.938

Supply activation value. Item: N=C(N)c1ccc(OCCCCCOc2ccc(C(=N)N)cc2)cc1 (tested in a mixture with another compound)
1.31

Supply activation value. Item: `Nc1ncnc2c1ncn2C1CCCC1`
1.12

Supply activation value. Item: `CCN(CC)CCCCCCCCOC(=O)c1cc(OC)c(OC)c(OC)c1`
1.25
